Molecular target: GST-Bcl-2 (Homo sapiens, UniProt P10415)
Sequence (P10415 whole entry): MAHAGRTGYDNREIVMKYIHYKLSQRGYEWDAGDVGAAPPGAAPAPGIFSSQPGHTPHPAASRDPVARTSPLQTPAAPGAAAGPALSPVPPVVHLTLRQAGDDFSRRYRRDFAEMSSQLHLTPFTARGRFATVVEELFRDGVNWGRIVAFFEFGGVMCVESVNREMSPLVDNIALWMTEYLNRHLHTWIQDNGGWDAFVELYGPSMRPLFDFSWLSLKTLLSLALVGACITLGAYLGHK
Assay: TR-FRET binding assay, GST-Bcl-2 with F-Bak peptide probe
Settings: TR-FRET Binding Affinity, GST-Bcl-2, F-Bak peptide probe
Each entry below carries its reported Ki.
READOUT_LABEL: Ki

• CC1(C)CCC(CN2CCN(c3ccc(C(=O)NS(=O)(=O)c4cnc(NCC5CCOCC5)c(-c5nccs5)c4)c(Oc4cccc5[nH]ccc45)c3)CC2)=C(c2ccc(Cl)cc2)C1 [Example 365] = 1.08 nM
• CC1(C)CCC(CN2CCN(c3ccc(C(=O)NS(=O)(=O)c4ccc(OCC5(F)CCOCC5)c([N+](=O)[O-])c4)c(Oc4cccc5[nH]ccc45)c3)CC2)=C(c2ccc(Cl)cc2)C1 [Example 306] = 0.077 nM
• CN(C)CC(=O)N1CCO[C@H](COc2ncc(S(=O)(=O)NC(=O)c3ccc(N4CCN(CC5=C(c6ccc(Cl)cc6)CC(C)(C)CC5)CC4)cc3Oc3cccc4[nH]cnc34)cc2Cl)C1 [Example 423] = < 0.01 nM

---

Each entry below carries its reported Binding selectivity ratio (Bcl-XL Ki/Bcl-2 Ki).
Target: GST-Bcl-2 (Homo sapiens)
Test: TR-FRET binding assay, GST-Bcl-2 with F-Bak peptide probe
Details: ratio of TR-FRET Ki values, Bcl-XL over Bcl-2
READOUT_LABEL: Binding selectivity ratio (Bcl-XL Ki/Bcl-2 Ki)

* CN(C)CC(=O)N1CCO[C@@H](COc2ncc(S(=O)(=O)NC(=O)c3ccc(N4CCN(CC5=C(c6ccc(Cl)cc6)CC(C)(C)CC5)CC4)cc3Oc3cccc4[nH]cnc34)cc2Cl)C1 | 782.5
* CC1(C)CCC(CN2CCN(c3ccc(C(=O)NS(=O)(=O)c4cnc(OCC5CCOCC5)c(Cl)c4)c(Oc4cccc5[nH]ncc45)c3)CC2)=C(c2ccc(Cl)cc2)C1 | 34408.6
* CC1(C)CCC(CN2CCN(c3ccc(C(=O)NS(=O)(=O)c4ccc(NCC5CN(CC(F)F)CCO5)c([N+](=O)[O-])c4)c(Oc4cccc5[nH]cnc45)c3)CC2)=C(c2ccc(Cl)cc2)C1 (stereo not shown) | 17326.9

---

Biological target: GST-Bcl-2 (Homo sapiens, UniProt P10415)
Assay: TR-FRET binding assay, GST-Bcl-2 with F-Bak peptide probe
Settings: TR-FRET Binding Affinity, GST-Bcl-2, F-Bak peptide probe
pKi: −log10 of the molar value.
READOUT_LABEL: pKi

* CC1(C)CCC(CN2CCN(c3ccc(C(=O)NS(=O)(=O)c4ccc(NCC5CCOCC5)c([N+](=O)[O-])c4)c(Oc4cccc5[nH]ccc45)c3)CC2)=C(c2ccc(Cl)cc2)C1 | 9.80
* CN(C)CCCNc1ccc(S(=O)(=O)NC(=O)c2ccc(N3CCN(Cc4ccccc4-c4ccc(Cl)cc4)CC3)cc2Oc2ccc3[nH]ccc3c2)cc1S(=O)(=O)C(F)(F)F | 9.28
* CC(c1ccccc1-c1ccc(Cl)cc1)N1CCN(c2ccc(C(=O)NS(=O)(=O)c3ccc(NCCCN4CCOCC4)c([N+](=O)[O-])c3)c(Oc3cccc4[nH]ccc34)c2)CC1 (centres unmarked) | 9.73

---

Molecular target: GST-Bcl-XL (Homo sapiens, UniProt Q07817)
Sequence (Q07817 whole entry): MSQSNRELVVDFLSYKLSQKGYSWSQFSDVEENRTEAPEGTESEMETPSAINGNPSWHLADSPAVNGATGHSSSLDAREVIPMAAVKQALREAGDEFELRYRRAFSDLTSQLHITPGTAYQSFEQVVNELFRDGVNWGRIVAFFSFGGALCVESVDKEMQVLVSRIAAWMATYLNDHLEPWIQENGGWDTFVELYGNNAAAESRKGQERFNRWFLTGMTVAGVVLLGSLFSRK
Assay: TR-FRET binding assay, GST-Bcl-XL with F-Bak peptide probe
Settings: TR-FRET Binding Affinity, GST-Bcl-XL, F-Bak peptide probe
pKi: −log10 of the molar value.
READOUT_LABEL: pKi

* CC1(C)CCC(CN2CCN(c3ccc(C(=O)NS(=O)(=O)c4ccc(N[C@H]5CC[C@H](N6CCOCC6)CC5)c([N+](=O)[O-])c4)c(Oc4cccc5[nH]ncc45)c3)CC2)=C(c2ccc(Cl)cc2)C1 [Example 402] | 8.38
* O=C(NS(=O)(=O)c1ccc(NCCCN2CCCC2)c([N+](=O)[O-])c1)c1ccc(N2CCN(Cc3ccccc3-c3ccc(Cl)cc3)CC2)cc1Oc1ccccc1 [Example 91] | 7.99
* O=C(NS(=O)(=O)c1ccc(NCCn2nccn2)c([N+](=O)[O-])c1)c1ccc(N2CCN(Cc3ccccc3-c3ccc(Cl)cc3)CC2)cc1Oc1ccccc1 [Example 165] | 7.44
* CN1CCC(Nc2ccc(S(=O)(=O)NC(=O)c3ccc(N4CCN(Cc5ccccc5-c5ccc(Cl)cc5)CC4)cc3Oc3ccccc3)cc2[N+](=O)[O-])CC1 [Example 89] | 8.13
* O=C(NS(=O)(=O)c1ccc(NCc2cccs2)c([N+](=O)[O-])c1)c1ccc(N2CCN(Cc3ccccc3-c3ccc(Cl)cc3)CC2)cc1Oc1ccccc1 [Example 162] | 6.78
* CC1(C)CCC(CN2CCN(c3ccc(C(=O)NS(=O)(=O)c4cnc(OCC5(F)CCOCC5)c(C#N)c4)c(Oc4cccc5[nH]ncc45)c3)CC2)=C(c2ccc(Cl)cc2)C1 [Example 406] | 7.35
* CN(C)CCOc1ccc(-c2ccc(Cl)cc2)c(CN2CCN(c3ccc(C(=O)NS(=O)(=O)c4ccc(NCCCN5CCCC5)c([N+](=O)[O-])c4)c(Oc4ccc5[nH]ccc5c4)c3)CC2)c1 [Example 135] | 8.20
* CC1(C)CCC(CN2CCN(c3ccc(C(=O)NS(=O)(=O)c4cnc(OCC5(F)CCOCC5)c(C#N)c4)c(Oc4cccc5[nH]ccc45)c3)CC2)=C(c2ccc(Cl)cc2)C1 [Example 393] | 7.04
* CC1(C)CCC(CN2CCN(c3ccc(C(=O)NS(=O)(=O)c4ccc(NC5CCN(C6CCOCC6)CC5)c([N+](=O)[O-])c4)c(Oc4ccc5[nH]ccc5c4)c3F)CC2)=C(c2ccc(Cl)cc2)C1 [Example 185] | 7.08
* CN1CC[C@H](Nc2ccc(S(=O)(=O)NC(=O)c3ccc(N4CCN(CC5=C(c6ccc(Cl)cc6)CC(C)(C)CC5)CC4)cc3Oc3ccc4[nH]ccc4c3)cc2[N+](=O)[O-])C1 [Example 234] | 7.61
* CN1CCC(Nc2ccc(S(=O)(=O)NC(=O)c3ccc(N4CCN(CC5=C(c6ccc(Cl)cc6)CC(C)(C)CC5)CC4)cc3Oc3ccc4[nH]ccc4c3)cc2S(=O)(=O)C(F)(F)F)CC1 [Example 76] | 8.48
* CC1(C)CCC(CN2CCN(c3ccc(C(=O)NS(=O)(=O)c4cnc(OCC5(F)CCOCC5)c(C(F)(F)F)c4)c(Oc4cccc5[nH]ncc45)c3)CC2)=C(c2ccc(Cl)cc2)C1 [Example 410] | 6.99
* CC1(C)CCC(CN2CCN(c3ccc(C(=O)NS(=O)(=O)c4cnc(O[C@@H]5CCN(CC(F)F)C5)c(Cl)c4)c(Oc4cccc5[nH]ncc45)c3)CC2)=C(c2ccc(Cl)cc2)C1 [Example 422] | 6.54

All figures here come from patent US9073855B2.
